This section presents compounds with their documented The inhibition ratio of the compound on EGFR(%) values.
target.desc: EGFR tyrosine kinase (Homo sapiens)
Sequence (P00533 25-1210): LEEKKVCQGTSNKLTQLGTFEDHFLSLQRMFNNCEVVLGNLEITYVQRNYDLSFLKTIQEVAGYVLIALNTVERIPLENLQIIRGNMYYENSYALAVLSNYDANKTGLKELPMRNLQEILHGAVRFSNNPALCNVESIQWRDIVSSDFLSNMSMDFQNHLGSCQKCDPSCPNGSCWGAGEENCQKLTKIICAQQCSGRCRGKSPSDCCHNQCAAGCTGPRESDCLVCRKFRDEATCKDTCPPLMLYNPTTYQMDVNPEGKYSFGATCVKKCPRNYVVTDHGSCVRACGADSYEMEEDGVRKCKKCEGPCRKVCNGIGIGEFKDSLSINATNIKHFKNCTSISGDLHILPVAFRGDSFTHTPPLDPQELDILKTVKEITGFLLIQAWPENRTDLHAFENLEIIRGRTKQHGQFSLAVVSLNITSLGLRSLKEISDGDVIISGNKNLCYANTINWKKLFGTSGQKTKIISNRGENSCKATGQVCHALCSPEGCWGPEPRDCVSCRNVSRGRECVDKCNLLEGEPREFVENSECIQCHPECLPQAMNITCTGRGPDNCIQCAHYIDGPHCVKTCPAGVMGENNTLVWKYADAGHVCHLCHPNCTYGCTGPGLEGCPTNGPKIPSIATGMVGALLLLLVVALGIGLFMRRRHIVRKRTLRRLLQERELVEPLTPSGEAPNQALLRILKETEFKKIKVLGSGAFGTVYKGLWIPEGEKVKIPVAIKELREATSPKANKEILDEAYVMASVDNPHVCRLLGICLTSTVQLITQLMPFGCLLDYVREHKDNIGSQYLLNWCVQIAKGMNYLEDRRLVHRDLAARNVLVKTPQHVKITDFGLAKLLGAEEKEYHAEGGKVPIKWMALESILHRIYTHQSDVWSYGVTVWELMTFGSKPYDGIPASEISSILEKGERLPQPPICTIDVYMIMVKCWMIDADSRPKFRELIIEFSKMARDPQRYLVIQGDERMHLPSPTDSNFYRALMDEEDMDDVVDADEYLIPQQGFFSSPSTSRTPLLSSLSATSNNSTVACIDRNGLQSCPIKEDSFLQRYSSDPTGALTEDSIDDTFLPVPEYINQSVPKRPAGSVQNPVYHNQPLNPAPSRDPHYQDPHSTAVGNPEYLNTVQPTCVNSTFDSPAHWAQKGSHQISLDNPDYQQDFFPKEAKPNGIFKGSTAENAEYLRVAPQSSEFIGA
protocol.summary: EGFR tyrosine kinase inhibition in vitro (Invitrogen EGFR inhibitor screening kit PV3193)
settings: 200 μM
Where a name gives a salt, the structure may show the parent alone.
test.readout: The inhibition ratio of the compound on EGFR(%)

In [3]: df
Out[3]:
                                    compound  units_text  result_number
 0  COc1cc2c(cc1OCCCN1CCOCC1)C1=Nc3cc(COS(C)(=O)=O)cc([N+](=O)[O-])c3CN1C=N2           %           86.5
 1  Br.COCCOc1cc2c(cc1OCCOC)C1=Nc3cccc(N)c3CN1C=N2           %           93.8
 2  COCCOc1cc2c(cc1OCCOC)C1=Nc3cccc(Cl)c3CN1C=N2.Cl           %           91.5
 3   C#Cc1cccc2c1CN1C=Nc3cc(OC)c(OC)cc3C1=N2           %           76.5
 4  CS(=O)(=O)CCNCc1ccc(-c2ccc3c(c2)C2=Nc4ccc(F)c(Cl)c4CN2C=N3)o1           %           72.6
 5  COCCOc1cc2c(cc1OCCOC)C1=Nc3cc(Cl)ccc3C(C)N1C=N2.O=C(O)CC(O)C(=O)O (stereo not shown)           %           95.6
 6  COCCOc1cc2c(cc1OCCOC)C1=Nc3cccc(Br)c3CN1C=N2.Cl           %           97.9
 7  COCCOc1cc2c(cc1OCCOC)C1=Nc3cccc(OC)c3CN1C=N2           %           78.5
 8  COc1cc2c(cc1OCCCN1CCOCC1)C1=Nc3cc(Cl)ccc3CN1C=N2           %           98.7
 9  C#Cc1ccc2c(c1)N=C1c3cc(OCCOC)c(OCCOC)cc3N=CN1C2           %           95.7
10  COCCOc1cc2c(cc1OCCOC)C1=Nc3cccc(F)c3CN1C=N2 [Compound V-3, mesylate]           %           81.6
11  COCCOc1cc2c(cc1OCCOC)C1=Nc3cccc(C#N)c3CN1C=N2           %           80.5
12  COCCOc1cc2c(cc1OCCOC)C1=Nc3cccc(NC(C)=O)c3CN1C=N2           %           85.6

---

Entries and their log10 IC50 values follow.
Test system: Hut78 T-Lymphocytic Leukemia cells
protocol.summary: Tumor cell IC50, CCK-8 kit, Hut78
Type: cell-based
settings: Homo sapiens, Hut-78 cells
test.readout: log10 IC50 (log10 of the value in µg/mL)

In [3]: df
Out[3]:
                                   compound                         target_desc  test_readout  result_number
0  C#Cc1ccc2c(c1)N=C1c3cc(OCCOC)c(OCCOC)cc3N=CN1C2  Hut78 T-Lymphocytic Leukemia cells    log10 IC50           1.68
1  COCCOc1cc2c(cc1OCCOC)C1=Nc3cccc(Br)c3CN1C=N2.Cl  Hut78 T-Lymphocytic Leukemia cells    log10 IC50           1.79
2  COCCOc1cc2c(cc1OCCOC)C1=Nc3cc(Cl)ccc3C(C)N1C=N2.O=C(O)CC(O)C(=O)O (centres unmarked)  Hut78 T-Lymphocytic Leukemia cells    log10 IC50           1.06
3  COCCOc1cc2c(cc1OCCOC)C1=Nc3ccc(F)c(Cl)c3CN1C=N2  Hut78 T-Lymphocytic Leukemia cells    log10 IC50          -0.21
4  COCCOc1cc2c(cc1OCCOC)C1=Nc3cc(COS(C)(=O)=O)cc([N+](=O)[O-])c3CN1C=N2.Cl  Hut78 T-Lymphocytic Leukemia cells    log10 IC50           1.74

---

Listing of entries alongside the reported The inhibition ratio of the compound on Aurora B(%).
target.desc: aurora kinase B (Homo sapiens, UniProt Q96GD4)
Construct: purchased Invitrogen PV3174
Sequence (Q96GD4 whole entry): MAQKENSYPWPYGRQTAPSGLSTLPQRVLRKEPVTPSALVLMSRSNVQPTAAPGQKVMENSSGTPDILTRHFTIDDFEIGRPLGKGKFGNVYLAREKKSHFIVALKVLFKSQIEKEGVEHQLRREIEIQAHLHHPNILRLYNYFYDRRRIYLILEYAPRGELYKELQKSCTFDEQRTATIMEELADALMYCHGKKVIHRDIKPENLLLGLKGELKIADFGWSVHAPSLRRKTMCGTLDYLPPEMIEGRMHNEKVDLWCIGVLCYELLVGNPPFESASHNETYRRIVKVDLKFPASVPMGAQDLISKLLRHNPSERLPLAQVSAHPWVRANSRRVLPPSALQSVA
protocol.summary: Aurora kinase B inhibition in vitro (Invitrogen aurora kinase screening kit PV3174)
Format: biochemical
settings: 40 μM
test.readout: The inhibition ratio of the compound on Aurora B(%)

>>> print(df.to_string())
                         structure_notation                               target_desc  result_number
0  COCCOc1cc2c(cc1OCCOC)C1=Nc3cccc(OC)c3CN1C=N2  aurora kinase B (Homo sapiens, UniProt Q96GD4)           20.8
1  COCCOc1cc2c(cc1OCCOC)C1=Nc3cccc(O)c3CN1C=N2  aurora kinase B (Homo sapiens, UniProt Q96GD4)           32.3
2  COCCOc1cc2c(cc1OCCOC)C1=Nc3cccc(C(F)(F)F)c3CN1C=N2  aurora kinase B (Homo sapiens, UniProt Q96GD4)           17.6
3  CS(=O)(=O)CCNCc1ccc(-c2ccc3c(c2)C2=Nc4ccc(F)c(Cl)c4CN2C=N3)o1  aurora kinase B (Homo sapiens, UniProt Q96GD4)           17.8
4  COCCOc1cc2c(cc1OCCOC)C1=Nc3cc(Cl)ccc3CN1C=N2  aurora kinase B (Homo sapiens, UniProt Q96GD4)           58.7
5  COCCOc1cc2c(cc1OCCOC)C1=Nc3cc(F)ccc3CN1C=N2  aurora kinase B (Homo sapiens, UniProt Q96GD4)           21.5
6  COCCOc1cc2c(cc1OCCOC)C1=Nc3cccc(Cl)c3CN1C=N2.Cl  aurora kinase B (Homo sapiens, UniProt Q96GD4)           47.6
7  C#Cc1ccc2c(c1)N=C1c3cc(OCCOC)c(OCCOC)cc3N=CN1C2  aurora kinase B (Homo sapiens, UniProt Q96GD4)           52.4

---

System: PC-3 human carcinoma of prostate
protocol.summary: Tumor cell inhibition ratio, CCK-8 kit, PC-3
settings: read-out: Antiproliferative effect (inhibition ratio) PC-3
Counter-ions that a name gives are not always drawn.
Decide by inhibition at 10 µM: equal to or exceeding 50% means label 1, less means label 0.

>>> df
                                   compound  qualitative_label
0  COCCOc1cc2c(cc1OCCOC)C1=Nc3cccc(NC(C)=O)c3CN1C=N2 [Compound V-11]            label 1
1  COCCOc1cc2c(cc1OCCOC)C1=Nc3cc(F)ccc3CN1C=N2 [Compound V-16]            label 1
2  COCCOc1cc2c(cc1OCCOC)C1=Nc3cccc(F)c3CN1C=N2 [Compound V-3, mesylate]            label 0
3  COCCOc1cc2c(cc1OCCOC)C1=Nc3cccc(O)c3CN1C=N2 [Compound V-8]            label 0
4  COCCOc1cc2c(cc1OCCOC)C1=Nc3ccc(F)c(Cl)c3CN1C=N2 [Compound V-13]            label 1

---

Readings of IC50 for the listed molecules
Test system: Jurkat E6-1 human T-cell lymphoma
protocol.summary: Tumor cell IC50, CCK-8 kit, Jurkat E6-1
Assay type: cell-based
settings: E6-1 cells
Counter-ions that a name gives are not always drawn.
test.readout: IC50 (µg/mL)

                                   molecule  result_number
0  C#Cc1cccc(Nc2ncnc3cc(OCCOC)c(OCCOC)cc23)c1 [Erlotinib hydrochloride, reference compound]           35.6
1  C#Cc1ccc2c(c1)N=C1c3cc(OCCOC)c(OCCOC)cc3N=CN1C2           12.5
2  COCCOc1cc2c(cc1OCCOC)C1=Nc3ccc(F)c(Cl)c3CN1C=N2           3.89
3  COCCOc1cc2c(cc1OCCOC)C1=Nc3cc(COS(C)(=O)=O)cc([N+](=O)[O-])c3CN1C=N2.Cl           0.05

---

target.desc: aurora kinase B (Homo sapiens, UniProt Q96GD4)
Construct: purchased Invitrogen PV3174
protocol.summary: Aurora kinase B inhibition in vitro (Invitrogen aurora kinase screening kit PV3174)
Assay type: biochemical
settings: 200 μM
Where a name gives a salt, the structure may show the parent alone.
test.readout: The inhibition ratio of the compound on Aurora B(%)

In [3]: df
Out[3]:
                                    molecule  result_number
 0  COc1cc2c(cc1OCCCN1CCOCC1)C1=Nc3cc(COS(C)(=O)=O)cc([N+](=O)[O-])c3CN1C=N2           78.9
 1  COCCOc1cc2c(cc1OCCOC)C1=Nc3cccc(O)c3CN1C=N2           96.4
 2  COCCOc1cc2c(cc1OCCOC)C1=Nc3cccc(NC(=O)c4ccccc4)c3CN1C=N2           87.9
 3  COCCOc1cc2c(cc1OCCOC)C1=Nc3cc(Cl)ccc3CN1C=N2           92.5
 4  COCCOc1cc2c(cc1OCCOC)C1=Nc3cc(Cl)ccc3C(C)N1C=N2.O=C(O)CC(O)C(=O)O (stereo not shown)           95.6
 5   C#Cc1cccc2c1CN1C=Nc3cc(OC)c(OC)cc3C1=N2           66.5
 6  COCCOc1cc2c(cc1OCCOC)C1=Nc3cccc(Br)c3CN1C=N2.Cl           95.8
 7  COCCOc1cc2c(cc1OCCOC)C1=Nc3cccc(NC(C)=O)c3CN1C=N2           96.7
 8  COCCOc1cc2c(cc1OCCOC)C1=Nc3ccc(OCc4cccc(F)c4)c(Cl)c3CN1C=N2           76.9
 9  C#Cc1ccc2c(c1)N=C1c3cc(OCCOC)c(OCCOC)cc3N=CN1C2           95.7
10  Cc1cc(Nc2cc(N3CCN(C)CC3)nc(Sc3ccc(NC(=O)C4CC4)cc3)n2)n[nH]1 [VX-680, reference compound]           81.6
11  COc1cc2c(cc1OC)C1=Nc3ccc(F)c(Cl)c3CN1C=N2           79.6
12  COCCOc1cc2c(cc1OCCOC)C1=Nc3cc(C#N)ccc3CN1C=N2           84.3
13  COCCOc1cc2c(cc1OCCOC)C1=Nc3cccc(F)c3CN1C=N2 [Compound V-3, mesylate]           83.6
14  COc1cc2c(cc1OCCCN1CCOCC1)C1=Nc3cc(Cl)ccc3CN1C=N2           78.7
15  COCCOc1cc2c(cc1OCCOC)C1=Nc3cc(F)ccc3CN1C=N2           78.1
16  CS(=O)(=O)CCNCc1ccc(-c2ccc3c(c2)C2=Nc4ccc(F)c(Cl)c4CN2C=N3)o1           92.6
17  CS(=O)(=O)CCNCc1ccc(-c2ccc3c(c2)C2=Nc4ccc(OCc5cccc(F)c5)c(Cl)c4CN2C=N3)o1           93.7
18  COCCOc1cc2c(cc1OCCOC)C1=Nc3cccc(C(F)(F)F)c3CN1C=N2           60.5
19  COCCOc1cc2c(cc1OCCOC)C1=Nc3cccc(OC)c3CN1C=N2           73.6
20  C#Cc1cccc2c1CN1C=Nc3ccc(-c4ccc(CNCCS(C)(=O)=O)o4)cc3C1=N2           79.8
21  COCCOc1cc2c(cc1OCCOC)C1=Nc3cccc([N+](=O)[O-])c3CN1C=N2           74.6
22  COCCOc1cc2c(cc1OCCOC)C1=Nc3ccc(F)c(Cl)c3CN1C=N2           95.8
23  COCCOc1cc2c(cc1OCCOC)C1=Nc3cccc(Cl)c3CN1C=N2.Cl           88.6
24  C#Cc1cccc2c1CN1C=Nc3cc(OCCOC)c(OCCOC)cc3C1=N2.Cl           91.5
25  COCCOc1cc2c(cc1OCCOC)C1=Nc3cccc(C#N)c3CN1C=N2           91.7
26  COCCOc1cc2c(cc1OCCOC)C1=Nc3cc(O)ccc3CN1C=N2           76.9
27  Br.COCCOc1cc2c(cc1OCCOC)C1=Nc3cccc(N)c3CN1C=N2           93.8
28  COCCOc1cc2c(cc1OCCOC)C1=Nc3cc(COS(C)(=O)=O)cc([N+](=O)[O-])c3CN1C=N2.Cl           96.4
29  CS(=O)(=O)CCNCc1ccc(-c2ccc3c(c2)C2=Nc4cc(Cl)ccc4CN2C=N3)o1           97.9
30  COc1cc2c(cc1OCCCN1CCCC1)C1=Nc3cccc(Cl)c3CN1C=N2           90.3
